- System: NRP1-a1,b1 (Homo sapiens)
- Sequence (O14786 273-427 limits assumed): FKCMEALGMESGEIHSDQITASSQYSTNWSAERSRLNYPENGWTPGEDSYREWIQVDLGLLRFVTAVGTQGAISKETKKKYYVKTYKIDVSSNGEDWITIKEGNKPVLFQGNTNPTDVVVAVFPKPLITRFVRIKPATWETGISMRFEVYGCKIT
- Assay: bt-VEGFA cell-free competition binding assay (plate-based)
- Measurement context: plate-based assay; Figure 2D; read-out: IC50, competitive inhibition of bt-VEGFA binding to NRP1
Measured property: IC50

- Compound: "CN(C)c1nc(CNc2cc(S(=O)(=O)Nc3ccsc3C(=O)N[C@@H](CCCNC(=N)N)C(=O)O)c3ncccc3c2)cs1.O=CO [Compound 12g]"
  IC50: "< 0.5 µM"

Input: What does the data say about its IC50? Entry: CNc1nc(CNc2cc(S(=O)(=O)Nc3ccsc3C(=O)N[C@@H](CCCNC(=N)N)C(=O)O)c3ncccc3c2)cs1 [Compound 12j]
Output: < 0.5 µM

###

- System: NRP1 b1 domain (Homo sapiens)
- Construct: with the purified recombinant NRP1 b1 domain immobilized on the chip; inferred from Ni-NTA capture), TEV-cleavable (cleaved yes); made in house; host or cells: E. coli Rosetta (DE3)
- Assay: SPR binding to immobilized NRP1 b1 domain (Biacore 4000, CM5 chip)
- Measurement context: steady-state binding, 25 °C; mean ± SD; read-out: SPR NRP1 b1 domain equilibrium KD
Measured property: Kd (nM)

Examples with answers:
- Molecule: "N=C(N)NCCC[C@H](NC(=O)c1sccc1NS(=O)(=O)c1cc(NCc2ccc(N)nc2)cc2cccnc12)C(=O)O [Compound 12l]"
  System: "NRP1 b1 domain (Homo sapiens)"
  Kd / nM: 1230
- Molecule: "CNc1nc(CNc2cc(S(=O)(=O)Nc3ccsc3C(=O)N[C@@H](CCCNC(=N)N)C(=O)O)c3ncccc3c2)cs1 [Compound 12j]"
  System: "NRP1 b1 domain (Homo sapiens)"
  Kd / nM: 530
- Molecule: "N=C(N)NCCC[C@H](NC(=O)c1sccc1NS(=O)(=O)c1cc(NCc2cccc(N3CCOCC3)n2)cc2cccnc12)C(=O)O [Compound 12k]"
  System: "NRP1 b1 domain (Homo sapiens)"
  Kd / nM: 1140

[P] Cn1cncc1CNCc1cccc(-c2cc(S(=O)(=O)Nc3ccsc3C(=O)N[C@@H](CCCNC(=N)N)C(=O)O)c3ncccc3c2)c1 [Compound 12a]
[Q] N=C(N)NCCC[C@H](NC(=O)c1sccc1NS(=O)(=O)c1cc(-c2cccc(CN)c2)cc2cccnc12)C(=O)O [Compound 12d]
[R] CNCc1ccc(-c2cc(S(=O)(=O)Nc3ccsc3C(=O)N[C@@H](CCCNC(=N)N)C(=O)O)c3ncccc3c2)cc1 [Compound 12b]
Input: Would you mind ranking these molecules by ascending Kd? List the labels in the requested order.
Output: Q, P, R

###

- System: NRP1-a1,b1 (Homo sapiens)
- Sequence (O14786 273-427 limits assumed): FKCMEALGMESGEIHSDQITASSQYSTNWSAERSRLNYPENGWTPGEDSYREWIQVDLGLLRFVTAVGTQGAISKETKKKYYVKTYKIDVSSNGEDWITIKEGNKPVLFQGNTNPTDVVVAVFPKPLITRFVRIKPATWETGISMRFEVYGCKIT
- Assay: bt-VEGFA cell-free competition binding assay (plate-based)
- Measurement context: 0.25 nM bt-VEGFA165; mean ± SEM, at least three independent experiments; read-out: Competition analysis bt-VEGFA, cell-free NRP1-a1,b1 IC50
pIC50: −log10 of the molar value.
Measured property: pIC50

[a] N=C(N)NCCC[C@H](NC(=O)c1sccc1NS(=O)(=O)c1cc(NCc2csc(N3CCNCC3)n2)cc2cccnc12)C(=O)O.O=CO [Compound 12h]
[b] N=C(N)NCCC[C@H](NC(=O)c1sccc1NS(=O)(=O)c1cccc2cccnc12)C(=O)O [Compound 12o]
Input: Compare a and b and name the one whose reported pIC50 is smaller. Your choice should be expressed through its label.
Output: b

###

- System: NRP1 b1 domain (Homo sapiens, UniProt O14786)
- Construct: with the purified recombinant NRP1 b1 domain immobilized on the chip; inferred from Ni-NTA capture), TEV-cleavable (cleaved yes); made in house; host or cells: E. coli Rosetta (DE3)
- Assay: SPR binding to immobilized NRP1 b1 domain (Biacore 4000, CM5 chip)
- Measurement context: Figure 2B; read-out: KD (kinetics)
Measured property: Kd (µM)
Dear colleague, please return just the value in µM, with no unit written.

Input: What does the data say about its Kd? Entry: N=C(N)NCCC[C@H](NC(=O)c1sccc1NS(=O)(=O)c1cc(NCc2csc(N3CCNCC3)n2)cc2cccnc12)C(=O)O.O=CO [Compound 12h]
Output: 0.346

###

- Assay: Pharmacokinetics in mice, 2 mg/kg iv
- Type: in vivo
- Measurement context: female, BALB/c, mouse, plasma
Measured property: AUC(0-t) (ng·h/mL)

- Compound: "CNc1nc(CNc2cc(S(=O)(=O)Nc3ccsc3C(=O)N[C@@H](CCCNC(=N)N)C(=O)O)c3ncccc3c2)cs1 [Compound 12j]"
  Endpoint unit: "ng·h/mL"
  AUC(0-t): 640

[P] CN(C)c1nc(CNc2cc(S(=O)(=O)Nc3ccsc3C(=O)N[C@@H](CCCNC(=N)N)C(=O)O)c3ncccc3c2)cs1.O=CO [Compound 12g]
[Q] N=C(N)NCCC[C@H](NC(=O)c1sccc1NS(=O)(=O)c1cc(NCc2csc(N3CCNCC3)n2)cc2cccnc12)C(=O)O.O=CO [Compound 12h]
Input: Compare P and Q and name the one whose reported AUC(0-t) is smaller. Your choice should be expressed through its label.
Output: P
(P: 490 ng·h/mL, Q: 1370 ng·h/mL)

###

- System: NRP1 b1 domain (Homo sapiens)
- Construct: with the purified recombinant NRP1 b1 domain immobilized on the chip; inferred from Ni-NTA capture), TEV-cleavable (cleaved yes); made in house; host or cells: E. coli Rosetta (DE3)
- Sequence (O14786 275-424 limits assumed): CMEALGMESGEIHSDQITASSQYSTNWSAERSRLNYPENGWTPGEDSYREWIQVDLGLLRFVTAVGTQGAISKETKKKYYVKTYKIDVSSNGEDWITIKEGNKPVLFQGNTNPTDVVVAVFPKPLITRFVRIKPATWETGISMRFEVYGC
- Assay: SPR binding to immobilized NRP1 b1 domain (Biacore 4000, CM5 chip)
- Measurement context: steady-state binding, 25 °C; mean ± SD; read-out: SPR NRP1 b1 domain equilibrium KD
Measured property: Kd (nM)

Examples with answers:
- Compound: "N=C(N)NCCC[C@H](NC(=O)c1sccc1NS(=O)(=O)c1cc(NCc2csc(N3CCNCC3)n2)cc2cccnc12)C(=O)O.O=CO [Compound 12h]"
  Assay result: 600
- Compound: "N=C(N)NCCC[C@H](NC(=O)c1sccc1NS(=O)(=O)c1cc(-c2ccnc(N)c2)cc2cccnc12)C(=O)O [Compound 12f]"
  Assay result: 1490
- Compound: "N=C(N)NCCC[C@H](NC(=O)c1sccc1NS(=O)(=O)c1cc(-c2ccc(CN)cc2)cc2cccnc12)C(=O)O [Compound 12e]"
  Assay result: 920

[1] N=C(N)NCCC[C@H](NC(=O)c1sccc1NS(=O)(=O)c1cc(NCc2csc(N)n2)cc2cccnc12)C(=O)O [Compound 12i]
[2] CN(C)c1ncc(CNc2cc(S(=O)(=O)Nc3ccsc3C(=O)N[C@@H](CCCNC(=N)N)C(=O)O)c3ncccc3c2)cn1 [Compound 12m]
Input: Compare 1 and 2 and name the one whose reported Kd is smaller. Your choice should be expressed through its label.
Output: 1
(1: 1040 nM, 2: 7710 nM)

###

- Assay: Pharmacokinetics in mice, 2 mg/kg iv
- Format: in vivo
- Measurement context: female, BALB/c, mouse, plasma
- Protocol: To test compound drug-like properties, selected compounds with low IC50 were further evaluated for their pharmacokinetic (PK) profile. 6–8 week-old BABL/c female mice were used. Two mg/kg of compounds was formulated in 7.5% DMSO and 92.5% PBS solution and intravenously dosed into the tail vein as a bolus. […] Samples were analyzed by liquid chromatography-tandem mass spectrometry using electrospray ionization and data was analyzed by WinNonlin software.
Measured property: half-life (min)

[A] N=C(N)NCCC[C@H](NC(=O)c1sccc1NS(=O)(=O)c1cc(NCc2csc(N3CCNCC3)n2)cc2cccnc12)C(=O)O.O=CO [Compound 12h]
[B] CNc1nc(CNc2cc(S(=O)(=O)Nc3ccsc3C(=O)N[C@@H](CCCNC(=N)N)C(=O)O)c3ncccc3c2)cs1 [Compound 12j]
[C] CN(C)c1nc(CNc2cc(S(=O)(=O)Nc3ccsc3C(=O)N[C@@H](CCCNC(=N)N)C(=O)O)c3ncccc3c2)cs1.O=CO [Compound 12g]
Input: # rank_down: sort by half-life, max first List the labels in the requested order.
Output: A, B, C
